# measurement-target: human FXR (NR1H4) (Homo sapiens, UniProt Q96RI1)
# Sequence (Q96RI1 whole entry, the tested form may be a part): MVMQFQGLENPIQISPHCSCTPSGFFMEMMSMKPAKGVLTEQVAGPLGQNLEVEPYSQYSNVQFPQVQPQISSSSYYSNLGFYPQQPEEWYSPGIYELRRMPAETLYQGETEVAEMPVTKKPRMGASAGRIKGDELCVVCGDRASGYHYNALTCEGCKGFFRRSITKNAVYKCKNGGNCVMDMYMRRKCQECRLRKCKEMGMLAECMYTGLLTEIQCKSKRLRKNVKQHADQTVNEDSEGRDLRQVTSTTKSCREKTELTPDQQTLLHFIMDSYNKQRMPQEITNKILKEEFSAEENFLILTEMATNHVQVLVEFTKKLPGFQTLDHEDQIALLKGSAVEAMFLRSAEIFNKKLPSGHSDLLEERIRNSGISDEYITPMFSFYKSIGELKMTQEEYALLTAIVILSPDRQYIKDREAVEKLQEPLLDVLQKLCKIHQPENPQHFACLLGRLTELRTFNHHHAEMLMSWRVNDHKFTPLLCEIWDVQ
# procedure-text: Human FXR (NR1H4) Assay: Gal4 promoter driven luciferase reporter transactivation in CHO cells (Indigo Bioscience kit IB00601)
# Format: cell-based
# condition-set: CHO, efficacy normalized to CDCA set as 100%; read-out: Efficacy (%)
// values below are reported Emax
Write the answer as a number in %, unit excluded.

Known results for compounds:
Summary: O=C(O)c1ccc(NC(=O)N2C3CCC2CC(OCc2c(-c4c(Cl)cccc4Cl)noc2C2CC2)C3)c(C(F)(F)F)c1 (stereo not drawn) [Example 710] , human FXR (NR1H4) (Homo sapiens, UniProt Q96RI1), Emax = 170

Reading of Emax for O=C(NCc1ccc(F)cc1)N1C2CCC1CC(OCc1c(-c3c(Cl)cccc3Cl)noc1C1CC1)C2 (stereo not drawn) [Example 732] with human FXR (NR1H4) (Homo sapiens, UniProt Q96RI1): 180

For O=C(O)c1cccc(NC(=O)N2C3CCC2CC(OCc2c(-c4ccccc4OC(F)(F)F)noc2C2CC2)C3)n1 (stereo not drawn) [Example 771] on human FXR (NR1H4) (Homo sapiens, UniProt Q96RI1), measured Emax was 54

Record CCOC(=O)c1cccc(NC(=O)N2C3CCC2CC(OCc2c(-c4ccccc4OC(F)(F)F)noc2C2CC2)C3)n1 (stereo not drawn) [Example 766] ; system human FXR (NR1H4) (Homo sapiens, UniProt Q96RI1); Emax = 192

Next:
Short answer on human FXR (NR1H4) (Homo sapiens, UniProt Q96RI1) for COc1cccc(C(=O)O)c1NC(=O)N1C2CCC1CC(OCc1c(-c3ccccc3OC(F)(F)F)noc1C1CC1)C2 (stereo not drawn) [Example 762] , Emax: 6

For O=C(O)c1cccc(NC(=O)N2C3CCC2CC(OCc2c(-c4ccccc4OC(F)(F)F)noc2C2CC2)C3)c1F (stereo not drawn) [Example 746] on human FXR (NR1H4) (Homo sapiens, UniProt Q96RI1), measured Emax was 156

# lookup: O=C(O)c1ccc(NC(=O)N2C3CCC2CC(OCc2c(-c4c(Cl)cccc4Cl)noc2C2CC2)C3)c(OC(F)(F)F)c1 (stereo not drawn) [Example 717] on human FXR (NR1H4) (Homo sapiens, UniProt Q96RI1), Emax = 149

Sample CCOC(=O)c1ccc(NC(=O)N2C3CCC2CC(NCc2c(-c4ccccc4OC(F)(F)F)noc2C2CC2)C3)c(OCC)c1 (stereo not drawn) [Example 831] , system: human FXR (NR1H4) (Homo sapiens, UniProt Q96RI1). Its Emax is 15

Hey, human FXR (NR1H4) (Homo sapiens, UniProt Q96RI1) data for CCOC(=O)c1cccc(NC(=O)N2C3CCC2CC(NCc2c(-c4c(Cl)cccc4Cl)noc2C2CC2)C3)c1 (stereo not drawn) [Example 827] : Emax came out at 110

* * *

# measurement-target: UniProt:Q96RI1
# procedure-text: Human FXR (NR1H4) Assay: Gal4 promoter driven luciferase reporter transactivation in CHO cells (Indigo Bioscience kit IB00601)
# Format: cell-based
# condition-set: CHO, read-out: Efficacy (%)
Reported Emax values for a set of compounds
Write it as a number; the unit % goes unstated.

Entry CCOC(=O)c1ccc2c(c1)CCCN2C(=O)N1C2CCC1CC(OCc1c(-c3ccccc3OC(F)(F)F)noc1C1CC1)C2 (stereo not shown) , tested on UniProt:Q96RI1, has a reported Emax of 40

Sample O=C(O)c1ccc2c(c1)CN(C(=O)N1C3CCC1CC(OCc1c(-c4ccccc4OC(F)(F)F)noc1C1CC1)C3)C2 (stereo not shown) , system: UniProt:Q96RI1. Its Emax is 105

Value sought: Emax, system UniProt:Q96RI1, item O=C(O)c1ccc2c(c1)CCN2C(=O)N1C2CCC1CC(OCc1c(-c3ccccc3OC(F)(F)F)noc1C1CC1)C2 (stereo not shown) . Result: 227

The compound COC(=O)c1ccc2c(c1)CN(C(=O)N1C3CCC1CC(OCc1c(-c4ccccc4OC(F)(F)F)noc1C1CC1)C3)C2 (stereo not shown) , when measured on UniProt:Q96RI1, yielded Emax of 53
